These entries and their values trace back to patent US8835442B2.

Molecular target: human A2AR (Homo sapiens, UniProt P29274)
Sequence (P29274 whole entry): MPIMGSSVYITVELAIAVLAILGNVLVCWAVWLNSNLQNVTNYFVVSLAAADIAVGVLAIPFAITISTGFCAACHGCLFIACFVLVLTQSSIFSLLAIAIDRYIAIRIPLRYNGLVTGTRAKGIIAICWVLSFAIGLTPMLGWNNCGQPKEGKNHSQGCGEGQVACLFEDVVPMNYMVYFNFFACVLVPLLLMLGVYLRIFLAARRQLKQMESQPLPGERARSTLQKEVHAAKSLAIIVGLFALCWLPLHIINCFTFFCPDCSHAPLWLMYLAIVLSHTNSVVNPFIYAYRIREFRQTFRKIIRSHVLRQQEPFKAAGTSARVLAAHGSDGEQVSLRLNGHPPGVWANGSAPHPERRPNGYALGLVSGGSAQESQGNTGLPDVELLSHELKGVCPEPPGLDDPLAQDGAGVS
Assay: Competitive radioligand binding assay, [3H] ZM 241385, membranes of HEK 293 cells stably expressing human A2AR
READOUT_TYPE: Ki (nM)

Record excerpt, results attached:
Q) Name the recorded Ki of CCn1c(=S)sc2c(=N)n(NC(=O)c3ccco3)cnc21 , assay system human A2AR (Homo sapiens, UniProt P29274).
A) 1.2

Q) Give Ki for this entry on human A2AR (Homo sapiens, UniProt P29274): N=c1c2sc(=S)n(-c3ccccc3)c2ncn1NC(=O)c1ccco1
A) 0.33

(A) CCCn1c(=S)sc2c(=N)n(NC(=O)c3ccco3)cnc21
(B) C=CCn1c(=S)sc2c(=N)n(NC(N)=O)cnc21
Q) Lab log: flag the item ( A or B ) with the smaller Ki figure. Refer to your chosen entry by its label in the reply.
A) A

(P) CCCCn1c(=S)sc2c(=N)n(NC(=O)c3ccco3)cnc21
(Q) N=c1c2sc(=S)n(-c3ccc(I)cc3)c2ncn1NC(N)=O
Q) Larger number for Ki: P , or Q ? Identify your selection by its label.
A) P
(P: 0.029 nM, Q: 0.017 nM)

(A) CCn1c(=S)sc2c(=N)n(NC(N)=O)cnc21
(B) N=c1c2sc(=S)n(Cc3ccccc3)c2ncn1NC(N)=O
Q) Lab note: record which item had the higher Ki, A or B . // return label of chosen record
A) A

* * *

Biological target: A2A receptor (Homo sapiens, UniProt P29274)
Construct: host or cells: HEK 293
Assay: cAMP functional assay in forskolin-pretreated HEK 293 cells
Format: cell-based
Details: 25 μM forskolin 2 h, then 100 nM compound for 24 h
READOUT_TYPE: cAMP concentration (nM)

Solved cases (3 shown):
Q) Quick one: give measured cAMP concentration for CCn1c(=S)sc2c(=N)n(NC(N)=O)cnc21
A) 0.085

Q) // fetch cAMP concentration given entry CCCCn1c(=S)sc2c(=N)n(NC(=O)c3ccco3)cnc21
A) 0.06

Q) Supply measured cAMP concentration of C=CCn1c(=S)sc2c(=N)n(NC(N)=O)cnc21 in your reply.
A) 0.08

(I) CCCn1c(=S)sc2c(=N)n(NC(=O)c3ccco3)cnc21
(II) N=c1c2sc(=S)n(-c3ccccc3)c2ncn1NC(=O)c1ccco1
Q) Of I and II , whose reported cAMP concentration is the larger number? Choose, then provide that item's label.
A) I
(I: 0.092 nM, II: 0.048 nM)

* * *

READOUT_TYPE: melting point (°C)

Q) Fill in melting point for record CCn1c(=S)sc2c(=N)n(NC(=O)c3ccco3)cnc21
A) 226

Q) Let me know recorded melting point for C=CCn1c(=S)sc2c(=N)n(NC(N)=O)cnc21 , thanks.
A) 202

Q) // fetch melting point given entry CCCn1c(=S)sc2c(=N)n(NC(N)=O)cnc21
A) 220

Q) Indicate the recorded melting point value for this compound: CCCCn1c(=S)sc2c(=N)n(NC(=O)c3ccco3)cnc21
A) 210

Q) Read off the recorded melting point for CCn1c(=S)sc2c(=N)n(NC(N)=O)cnc21
A) 212

Q) For N=c1c2sc(=S)n(-c3ccccc3)c2ncn1NC(=O)c1ccco1 , write its melting point.
A) 228

Q) Return the recorded melting point value; entry: N=c1c2sc(=S)n(-c3ccc(I)cc3)c2ncn1NC(N)=O
A) 235

Q) Tell me its melting point given N=c1c2sc(=S)n(Cc3ccccc3)c2ncn1NC(N)=O as the entry.
A) 190

Q) Complete the entry with melting point for N=c1c2sc(=S)n(-c3ccccc3)c2ncn1NC(N)=O
A) 225

Q) Determine from records and report melting point for CCCn1c(=S)sc2c(=N)n(NC(=O)c3ccco3)cnc21
A) 206

Q) Specify melting point for CCCCn1c(=S)sc2c(=N)n(NC(N)=O)cnc21 and stop.
A) 222
